Ref: patent US10081633B2

Assay system type VI adenylyl cyclase (Homo sapiens); read-out recorded as IC50.
Quick reminder: number only, in nM, skip the unit.

Previously resolved entries follow.
compound=Nc1ncnc2c1ncn2[C@@H]1CC[C@@H](C(=O)NO)C1 target_or_system="type VI adenylyl cyclase (Homo sapiens)" metric=IC50 numeric_readout=250
compound="Nc1nc(F)cc2c1ncn2[C@@H]1CC[C@@H](C(=O)NO)C1 [Compound 10v]" target_or_system="type VI adenylyl cyclase (Homo sapiens)" metric=IC50 numeric_readout=30

As a next step, examine the compound that follows.
# input Please give the measured IC50 for this compound: Nc1nc(F)nc2c1ncn2[C@@H]1CC[C@@H](C(=O)NO)C1 [Compound 10j]
# output 210
